Target: HLA-B*07:02
Test: IEDB peptide-MHC binding, purified MHC/competitive/radioactivity; filed as Kd, often an IC50 or EC50 that approximates it; bounds were set here for any values at or beyond the usual limits of such assays
Conditions: source organism: Dengue virus 4 Dominica/814669/1981
Experimental Readout: Kd (nM)
Your answer is read as nM, so omit the unit and give the number.

q: Find the recorded Kd belonging to NPTTLTASL and report it.
a: 57.3

====

Biological target: HLA-A*02:03
Experiment: IEDB peptide-MHC binding, purified MHC/direct/fluorescence; filed as Kd, often an IC50 or EC50 that approximates it; bounds were set here for any values at or beyond the usual limits of such assays
Conditions: source organism: Influenza A virus (A/ruddy turnstone/Delaware/67/1998(H12N4))
pKd: −log10 of the molar value.
Experimental Readout: pKd

q: What is its pKd for HLA-A*02:03? Entry: IVFMWAIHH
a: ≤ 4.70

====

Target: HLA-B*46:01
Test: IEDB peptide-MHC binding, purified MHC/competitive/fluorescence; filed as Kd, often an IC50 or EC50 that approximates it; bounds were set here for any values at or beyond the usual limits of such assays
Conditions: source organism: Brucella suis 1330
Experimental Readout: Kd

q: What is its Kd for HLA-B*46:01? Entry: TEWPQLKVA
a: ≥ 20 µM

====

Biological target: HLA-A*01:01
Assay: IEDB peptide-MHC binding, purified MHC/direct/fluorescence; filed as Kd, often an IC50 or EC50 that approximates it; bounds were set here for any values at or beyond the usual limits of such assays
Conditions: source organism: Mycobacterium tuberculosis variant bovis
pKd: −log10 of the molar value.
Experimental Readout: pKd

q: What is its pKd for HLA-A*01:01? Entry: TPREAPYEL
a: ≤ 4.70

====

Target: HLA-B*18:01
Experiment: IEDB peptide-MHC binding, purified MHC/competitive/fluorescence; filed as Kd, often an IC50 or EC50 that approximates it; bounds were set here for any values at or beyond the usual limits of such assays
Conditions: source organism: Vibrio vulnificus YJ016
Experimental Readout: Kd

q: Find the recorded Kd belonging to TSCAPMMQK and report it.
a: ≥ 20 µM

====

Molecular target: HLA-A*02:06
Assay: IEDB peptide-MHC binding, purified MHC/competitive/radioactivity; filed as Kd, often an IC50 or EC50 that approximates it; bounds were set here for any values at or beyond the usual limits of such assays
Conditions: source organism: Dengue virus 1 Brazil/97-11/1997
A collection of sequences and their measured Kd
Your answer is read as nM, so omit the unit and give the number.

>>> val("LMLLALIAV")
8.08

Note: attention shifts to another entry.
q: Find the recorded Kd belonging to MTTEDMLSV and report it.
a: 10.6

====

A collection of sequences and their measured pIC50
Target: HLA-B*15:01
Assay: IEDB peptide-MHC binding, purified MHC/competitive/fluorescence; bounds were set here for any values at or beyond the usual limits of such assays
Settings: source organism: Zaire ebolavirus
pIC50: −log10 of the molar value.

Worked set:
>>> val("VIFRLMRTN")
"≤ 3.76"
>>> val("GQHIEGRQT")
"≤ 3.83"
>>> val("VTLDGQQFY")
4.27

q: Find the recorded pIC50 belonging to GLIQYPTAW and report it.
a: ≤ 3.96

====

Biological target: HLA-A*33:01
Experiment: IEDB peptide-MHC binding, purified MHC/competitive/radioactivity; filed as Kd, often an IC50 or EC50 that approximates it; bounds were set here for any values at or beyond the usual limits of such assays
Settings: source organism: Lymphocytic choriomeningitis virus (strain WE)
Experimental Readout: Kd

q: What is its Kd for HLA-A*33:01? Entry: SAYLISIFLH
a: 874 nM

====

Molecular target: HLA-B*15:01
Experiment: IEDB peptide-MHC binding, purified MHC/competitive/fluorescence; filed as Kd, often an IC50 or EC50 that approximates it; bounds were set here for any values at or beyond the usual limits of such assays
Details: source organism: Yersinia pestis Nepal516
Experimental Readout: pKd
Note on pKd: it is the negative log10 of concentration, concentration in mol/L.

q: Find the recorded pKd belonging to NTLGITHLY and report it.
a: 5.52

====

Target: HLA-B*18:01
Experiment: IEDB peptide-MHC binding, purified MHC/competitive/fluorescence; filed as Kd, often an IC50 or EC50 that approximates it; bounds were set here for any values at or beyond the usual limits of such assays
Conditions: source organism: Shigella boydii CDC 3083-94
Experimental Readout: Kd

q: What is its Kd for HLA-B*18:01? Entry: MAMTGLPQA
a: ≥ 20 µM

====

Target: HLA-A*29:02
Test: IEDB peptide-MHC binding, purified MHC/competitive/fluorescence; filed as Kd, often an IC50 or EC50 that approximates it; bounds were set here for any values at or beyond the usual limits of such assays
Conditions: source organism: Vibrio vulnificus YJ016
Experimental Readout: Kd (nM)
Your answer is read as nM, so omit the unit and give the number.

q: Find the recorded Kd belonging to YDPARYPLY and report it.
a: 30.5

====

Molecular target: HLA-A*66:01
Assay: IEDB peptide-MHC binding, purified MHC/competitive/fluorescence; filed as Kd, often an IC50 or EC50 that approximates it; bounds were set here for any values at or beyond the usual limits of such assays
Details: source organism: Entamoeba histolytica HM-1:IMSS
Experimental Readout: Kd (µM)
Your answer is read as µM, so omit the unit and give the number.

q: What is its Kd for HLA-A*66:01? Entry: EVIRATYPS
a: 0.0244

====

Target: HLA-B*18:01
Assay: IEDB peptide-MHC binding, purified MHC/competitive/radioactivity; filed as Kd, often an IC50 or EC50 that approximates it; bounds were set here for any values at or beyond the usual limits of such assays
Details: source organism: Lymphocytic choriomeningitis virus (strain WE)
Experimental Readout: Kd

q: Find the recorded Kd belonging to LDVLCPSSL and report it.
a: ≥ 77.5 µM

====

Molecular target: HLA-C*15:02
Experiment: IEDB peptide-MHC binding, purified MHC/direct/fluorescence; filed as Kd, often an IC50 or EC50 that approximates it; bounds were set here for any values at or beyond the usual limits of such assays
Conditions: source organism: Influenza A virus (A/Fort Monmouth/1/1947-mouse adapted(H1N1))
Experimental Readout: pKd
Note on pKd: it is the negative log10 of concentration, concentration in mol/L.

q: What is its pKd for HLA-C*15:02? Entry: GTFEFTSFF
a: 5.44

====

Target: HLA-B*57:01
Experiment: IEDB peptide-MHC binding, purified MHC/direct/fluorescence; filed as Kd, often an IC50 or EC50 that approximates it; bounds were set here for any values at or beyond the usual limits of such assays
Conditions: source organism: Orthohantavirus sinnombreense
pKd: −log10 of the molar value.
Experimental Readout: pKd

q: What is its pKd for HLA-B*57:01? Entry: FRYKSRCYV
a: ≤ 4.70

====

Biological target: HLA-A*23:01
Assay: IEDB peptide-MHC binding, purified MHC/competitive/fluorescence; filed as Kd, often an IC50 or EC50 that approximates it; bounds were set here for any values at or beyond the usual limits of such assays
Details: source organism: Shigella boydii CDC 3083-94
Experimental Readout: Kd

q: Find the recorded Kd belonging to MAMTGLPQA and report it.
a: ≥ 20 µM

====

Target: HLA-B*07:02
Test: IEDB peptide-MHC binding, purified MHC/competitive/radioactivity; filed as Kd, often an IC50 or EC50 that approximates it; bounds were set here for any values at or beyond the usual limits of such assays
Conditions: source organism: Dengue virus 2 Jamaica/1409/1983
Experimental Readout: pKd
Note on pKd: it is the negative log10 of concentration, concentration in mol/L.

>>> val("LAAVSVSPL")
6.90

q: Find the recorded pKd belonging to TPMLRHSIEN and report it.
a: 6.29

====

Biological target: HLA-B*46:01
Experiment: IEDB peptide-MHC binding, purified MHC/direct/fluorescence; filed as Kd, often an IC50 or EC50 that approximates it; bounds were set here for any values at or beyond the usual limits of such assays
Settings: source organism: Mycobacterium tuberculosis variant bovis
Experimental Readout: Kd

q: Find the recorded Kd belonging to TPREAPYEL and report it.
a: ≥ 20 µM

====

Target: HLA-A*29:02
Assay: IEDB peptide-MHC binding, purified MHC/competitive/radioactivity; filed as Kd, often an IC50 or EC50 that approximates it; bounds were set here for any values at or beyond the usual limits of such assays
Settings: source organism: Lassa virus GA391
Experimental Readout: Kd (µM)
Your answer is read as µM, so omit the unit and give the number.

q: Find the recorded Kd belonging to EGNETPGGY and report it.
a: 18.6

====

Target: HLA-A*02:01
Experiment: IEDB peptide-MHC binding, purified MHC/direct/fluorescence; filed as Kd, often an IC50 or EC50 that approximates it; bounds were set here for any values at or beyond the usual limits of such assays
Conditions: source organism: Influenza A virus (A/Turkey/MO/24093/99(H1N2))
pKd: −log10 of the molar value.
Experimental Readout: pKd

q: Find the recorded pKd belonging to GMQIRGFVY and report it.
a: ≤ 4.70
